The reported measurements were obtained from patent US10450368.

# test-system: CH505.M5D8gp120293F
# assay-info: ELISA
measured-metric: LogAUC

- binder: "CH493 (antibody, V domains shown, also called CH235.9; DH493) VH: QVRLLQYGGGVKRPGASMTISCVASGYNFNDYYIHWVRQAPGQGLELMGWIDPSGGRTDYAGAFGDRVSMYRDKSMNTLYMDLRSLRSGDTAMYYCVRNVGTAGSLLHYDHWGLGVMVTVSS VL: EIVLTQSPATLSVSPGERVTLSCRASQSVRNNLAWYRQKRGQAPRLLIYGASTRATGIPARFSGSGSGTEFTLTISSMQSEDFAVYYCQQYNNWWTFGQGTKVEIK"
  measured-metric: "LogAUC"
  assay-value: 9.26
